Measured normalized growth by item
- method: chemical genetic growth profiling, strain panel (AID 1159580);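 also: tested at 20 µM; growth read once vehicle control cultures reached saturation at 30 °C; 1 = growth at the plate median or of vehicle wells; lower values mean less growth of the strain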
- protocol_conditions: S. cerevisiae deletion strains, growth OD, locus YPL240C, strain hsp82, stronger effect = lower value
Out of some 5,500 compounds screened, about 2,000 (36%) were called active. Inconclusive results (about 18%) are left out. The list shows a part of the results.
Lab note: record just the number, no unit beside it.

INSERT INTO assay_data (compound, meas_value) VALUES
  ('Oc1cc2c(cc1O)C(c1ccccc1)CNCC2 (stereo not drawn)', 0.983);

Here's the next entry for you.
Prompt line: # return recorded normalized growth for input CC(=O)OC1CCC2(O)CC1(C)CCC1C2CC1(C)C (stereo not drawn)
Response line: 1.02

====

- method: chemical genetic growth profiling, strain panel (AID 1159580)
- protocol_conditions: S. cerevisiae deletion strains, growth OD, locus YDL214C, strain PRR2, stronger effect = lower value
Hit rate of the full screen: of about 5,500 compounds, about 2,000 (36%) were called active. Not shown: some 18% with an inconclusive outcome. This is one part of the list.
parameter_measured: normalized growth
Lab note: record just the number, no unit beside it.

A selection of reference data follows.
INSERT INTO results (molecule, meas_value) VALUES
  ('CC(C)c1cccc(C(C)C)c1OC(=O)NC(=O)c1c(Cl)cccc1Cl', 0.974),
  ('CC(C)OC(=O)Nc1cc(Cl)cc(Cl)c1', 0.864),
  ('O=C1c2ccccc2C(=O)c2sccc21', 0.233);

Prompt line: # return recorded normalized growth for input `O=C(Nc1ccc(F)cc1)c1cc(Br)ccc1O`
Response line: 0.867

Prompt line: # return recorded normalized growth for input `O=C(Nc1cc(Cl)cc(Cl)c1)c1cc(Br)ccc1O`
Response line: 0.849

Prompt line: # return recorded normalized growth for input `COc1cc(C2SCCS2)cc(Br)c1OC(=O)NC(=O)c1c(Cl)cccc1Cl`
Response line: 0.953

Prompt line: # return recorded normalized growth for input `O=C(/C=C/c1ccc(Cl)cc1)Nc1cccc(Cl)c1`
Response line: 0.88

Prompt line: # return recorded normalized growth for input `COC(=O)c1cc(I)c(OC(C)=O)c(I)c1`
Response line: 0.929

====

Measured normalized growth by item
- method: chemical genetic growth profiling, strain panel (AID 1159580);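 also: tested at 20 µM; growth read once vehicle control cultures reached saturation at 30 °C; 1 = growth at the plate median or of vehicle wells; lower values mean less growth of the strain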
- protocol_conditions: S. cerevisiae deletion strains, growth OD, locus YOR001W, strain rrp6, stronger effect = lower value
The whole screen tested about 5,500 compounds, of which about 2,000 (36%) were called active. About 18% were inconclusive and are not listed. The list shows a part of the results.
Lab note: record just the number, no unit beside it.

INSERT INTO results (molecule, parameter_measured, meas_value) VALUES
  ('C[C@H]1C(=O)CCC2[C@]3(C)CC[C@@]4(C)C5CC(C)(C)CC[C@]5(C)CC[C@]4(C)C3CC[C@@]21C (stereo partly specified)', 'normalized growth', 0.98);

Here's the next entry for you.
Prompt line: # return recorded normalized growth for input `Oc1cccc2cccnc12`
Response line: 0.0671

====

- method: chemical genetic growth profiling, strain panel (AID 1159580);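 also: tested at 20 µM; growth read once vehicle control cultures reached saturation at 30 °C; 1 = growth at the plate median or of vehicle wells; lower values mean less growth of the strain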
- protocol_conditions: S. cerevisiae deletion strains, growth OD, locus YDR297W, strain sur2, stronger effect = lower value
About 2,000 (36%) of roughly 5,500 compounds were called active. Roughly 18% stayed inconclusive and do not appear here. The list shows a part of the results.
parameter_measured: normalized growth
Lab note: record just the number, no unit beside it.

INSERT INTO assay_data (compound, meas_value) VALUES
  ('NNCc1ccccc1', 0.989);

Prompt line: # return recorded normalized growth for input `CC(=O)c1ccc[nH]1`
Response line: 1.01

Prompt line: # return recorded normalized growth for input `O=C(/C=C/c1ccccc1)c1ccc(O[C@@H]2O[C@H](CO)[C@@H](O)[C@H](O)[C@H]2O)cc1O`
Response line: 0.921

Prompt line: # return recorded normalized growth for input `OC[C@H]1O[C@@H](Oc2ccc(O)cc2)[C@H](O)[C@@H](O)[C@@H]1O`
Response line: 1

Prompt line: # return recorded normalized growth for input `O=c1c(O)cccc2cc(O)c(O)c(O)c12`
Response line: 0.877

Prompt line: # return recorded normalized growth for input `O=C(/C=C/c1ccc(O)cc1)c1ccc(O)cc1O`
Response line: 1

Prompt line: # return recorded normalized growth for input CC(=O)OC[C@@]1(O)C[C@@]23CCC4c5ccoc5CC[C@]4(C)C2CC[C@@H]1C3 (some centres not stated)
Response line: 1.01

Prompt line: # return recorded normalized growth for input `CC1=C(C(=O)O)N2C(=O)[C@@H](NC(=O)[C@@H](N)c3ccc(O)cc3)[C@H]2SC1`
Response line: 1.03

Prompt line: # return recorded normalized growth for input `O=C1c2ccccc2C(=O)c2ccccc21`
Response line: 0.993

Prompt line: # return recorded normalized growth for input `O=C(/C=C/c1ccc(O)cc1)c1ccccc1O`
Response line: 0.554

Prompt line: # return recorded normalized growth for input `O=C(/C=C/c1ccccc1)c1ccc(O)cc1O`
Response line: 0.0595

Prompt line: # return recorded normalized growth for input `CNC(C)(C)Cc1ccccc1`
Response line: 1.02

====

- method: chemical genetic growth profiling, strain panel (AID 1159580);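 also: tested at 20 µM; growth read once vehicle control cultures reached saturation at 30 °C; 1 = growth at the plate median or of vehicle wells; lower values mean less growth of the strain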
- protocol_conditions: S. cerevisiae deletion strains, growth OD, locus YMR263W, strain SAP30, stronger effect = lower value
Hit rate of the full screen: of about 5,500 compounds, about 2,000 (36%) were called active. About 18% were inconclusive and are not listed. Some of the results follow.
Measured normalized growth by item
Lab note: record just the number, no unit beside it.

INSERT INTO results (molecule, meas_value) VALUES
  ('O=c1c(O)c(-c2ccccc2)oc2ccc3occc3c12', 0.854),
  ('O=C1c2ccccc2C(=O)N1CNc1cccc(Cl)c1', 0.984),
  ('C#CCn1c(=O)c2c(ncn2C)n(C)c1=O', 0.995),
  ('NC(=NCCCCCCN=C(N)N=C(N)Nc1ccc(Cl)cc1)N=C(N)Nc1ccc(Cl)cc1', 0.0566),
  ('CCOC(=O)CC(=O)CSc1nnc(N)s1', 1.02),
  ('Cc1ccc(NC(=S)C(C#N)C(=O)N2CCCC2)c(C)c1 (configuration not stated)', 0.922),
  ('C[N+](C)(C)CC#CCOC(=O)Nc1cccc(Cl)c1', 0.953),
  ('COc1cc(O)c2c(c1)C(=O)c1cc(C)cc(O)c1C2=O', 1.01);

Prompt line: # return recorded normalized growth for input `CCCc1ccc(-c2nc(-c3ccc(C)cc3)no2)cc1`
Response line: 0.994

Prompt line: # return recorded normalized growth for input `COc1cc([C@@H]2c3cc4c(cc3[C@H](O)[C@H]3COC(=O)[C@H]23)OCO4)cc(OC)c1OC`
Response line: 1.02

Prompt line: # return recorded normalized growth for input `CC(C)=CCC/C(C)=C/CO`
Response line: 1.02

Prompt line: # return recorded normalized growth for input `Nc1c(Cl)cc(C(=O)Nc2cc(Cl)cc(Cl)c2)cc1Cl`
Response line: 0.934

Prompt line: # return recorded normalized growth for input CC(C)C1CCC(C(=O)N[C@@H](Cc2ccccc2)C(=O)O)CC1 (some centres not stated)
Response line: 0.974

Prompt line: # return recorded normalized growth for input COC(=O)C[C@H]1C(C)(C)[C@@H](OC(C)=O)[C@@H]2CC3=C4CC(=O)O[C@@H](c5ccoc5)[C@]4(C)CCC3[C@@]1(C)C2=O (some centres not stated)
Response line: 1.01

Prompt line: # return recorded normalized growth for input `C=C[C@H]1CN2CC[C@H]1C[C@H]2[C@H](O)c1ccnc2ccccc12`
Response line: 0.987

Prompt line: # return recorded normalized growth for input `Cc1onc(-c2c(Cl)cccc2Cl)c1C(=O)N1CCN(c2ncnc3scc(-c4ccccc4)c23)CC1`
Response line: 0.967

Prompt line: # return recorded normalized growth for input `Cc1c(C)c(C)c(S(=O)(=O)Nc2ccccc2N)c(C)c1C`
Response line: 1.01

Prompt line: # return recorded normalized growth for input `Clc1cc(Cl)cc(Br)c1`
Response line: 1.02

Prompt line: # return recorded normalized growth for input CNC(C)[C@@H]1CC[C@@H](N)[C@@H](OC2[C@@H](N)C[C@@H](N)[C@H](OC3OC[C@](C)(O)[C@H](NC)[C@H]3O)[C@H]2O)O1 (some centres not stated)
Response line: 1.01

Prompt line: # return recorded normalized growth for input `CC(C)N=C(N)N=C(N)Nc1ccc(Cl)cc1`
Response line: 1.01

Prompt line: # return recorded normalized growth for input `Cc1cc2c(cc1C)CSC(C)(c1ccc(F)cc1)SC2`
Response line: 0.947

Prompt line: # return recorded normalized growth for input `COc1ccccc1C1CCN(c2ncnc3scc(-c4ccccc4)c23)CC1`
Response line: 1.02

Prompt line: # return recorded normalized growth for input `O=C(/C=C/c1ccccc1)c1c(O)cc(O)cc1O`
Response line: 1.02

Prompt line: # return recorded normalized growth for input CC(NC(C)(C)C)C(=O)c1cccc(Cl)c1 (configuration not stated)
Response line: 1.01

Prompt line: # return recorded normalized growth for input `COc1ccccc1NC(=S)NCCc1ccc(OC)c(OC)c1`
Response line: 0.989

Prompt line: # return recorded normalized growth for input `Cc1cc(NC(=O)Nc2cccc(C(F)(F)F)c2)n(C)n1`
Response line: 1.01

Prompt line: # return recorded normalized growth for input `O=C(CNc1cccc(Cl)c1)c1ccc(Cl)cc1`
Response line: 0.908

Prompt line: # return recorded normalized growth for input C=CC1CN2CCC1CC2C(OC(C)=O)c1ccnc2ccc(OC)cc12 (configuration not stated)
Response line: 0.984

Prompt line: # return recorded normalized growth for input `O=C(NNC(=O)c1ccc[nH]1)Nc1cc(Cl)cc(Cl)c1`
Response line: 1.02

Prompt line: # return recorded normalized growth for input `CC(=N/O)/C(C)=C/c1ccc(Cl)cc1`
Response line: 0.837

Prompt line: # return recorded normalized growth for input `O=C(Nc1ccc([N+](=O)[O-])cc1Cl)c1cc(Cl)ccc1O`
Response line: 0.991

Prompt line: # return recorded normalized growth for input `COC(=O)c1cc(OC)c(OC)cc1NC(=O)Nc1cc(Cl)cc(Cl)c1`
Response line: 0.978

Prompt line: # return recorded normalized growth for input CC(=O)OC[C@@]1(O)C[C@@]23CCC4c5ccoc5CC[C@]4(C)C2CC[C@@H]1C3 (some centres not stated)
Response line: 0.985

Prompt line: # return recorded normalized growth for input CCCC(=O)Nc1ccc(OCC(O)CNC(C)C)c(C(C)=O)c1 (configuration not stated)
Response line: 1.02

Prompt line: # return recorded normalized growth for input `O=C(/C=C/c1ccc(O)cc1)c1ccc(O)cc1O`
Response line: 0.989
